Some binders, each annotated with its measured EC50.
- experimental-system: T1, mouse LTβR extracellular domain fused with an Fc fragment at the C-terminus (mouse, UniProt P50284 31-223)
- T1 construct: extracellular domain; Bought; also called mLTβR; not shown: Fc fragment at the C-terminus
- T1 sequence (P50284 31-223): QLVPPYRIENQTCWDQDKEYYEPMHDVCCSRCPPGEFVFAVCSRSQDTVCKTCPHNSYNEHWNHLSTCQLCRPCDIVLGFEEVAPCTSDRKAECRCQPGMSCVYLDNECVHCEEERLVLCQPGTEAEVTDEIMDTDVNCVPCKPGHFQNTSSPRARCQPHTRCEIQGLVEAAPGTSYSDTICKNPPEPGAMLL
- method-description: ELISA on coated target-Fc
Supply the numeric figure in µg/mL, leaving out any unit text.

Consider the following illustrative entries.
LIGHT-15 (ligand, Printed mutations: Q117E, E175K, K214E, L227T; Soluble protein carries an N-terminal His tag) DGPAGSWEQLIQERRSHEVNPAAHLTGANSSLTGSGGPLLWETELGLAFLRGLSYHDGALVVTKAGYYYIYSKVQLGGVGCPLGLASTITHGLYKRTPRYPKELELLVSQQSPCGRATSSSRVWWDSSFLGGVVHLEAGEEVVVRVLDERLVRTRDGTRSYFGAFMV	0.139
LIGHT-41 (ligand, Printed mutations: G150R, S160G, L220S; Soluble protein carries an N-terminal His tag) DGPAGSWEQLIQERRSHEVNPAAHLTGANSSLTGSGGPLLWETQLGLAFLRGLSYHDGALVVTKAGYYYIYSKVQLRGVGCPLGLAGTITHGLYKRTPRYPEELELLVSQQSPCGRATSSSRVWWDSSFLGGVVHLEAGEKVVVRVSDERLVRLRDGTRSYFGAFMV	0.0311

Read the next record carefully.
Using known records, supply EC50 for LIGHT-1 (ligand, Printed mutations: V152M, W198Q, R228L; Soluble protein carries an N-terminal His tag) DGPAGSWEQLIQERRSHEVNPAAHLTGANSSLTGSGGPLLWETQLGLAFLRGLSYHDGALVVTKAGYYYIYSKVQLGGMGCPLGLASTITHGLYKRTPRYPEELELLVSQQSPCGRATSSSRVWQDSSFLGGVVHLEAGEKVVVRVLDERLVRLLDGTRSYFGAFMV
0.0605
